biological target: Sphingosine 1-phosphate receptor 1 (Homo sapiens) (UniProt P21453); assay: S1P1 agonists and agonism potentiators, primary screen, cell-based, primary and confirmation screens, CRE-bla reporter (AID 449); details: S1P1 CRE-bla cells, forskolin, beta-lactamase FRET, potentiator mode; at 9.5 µM; hits give high values; 100% = saturating reference agonist, 0% = basal; S1P1 agonist co-added at EC20, 2 nM;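 note: forskolin at 4 µM as EC80 and the EC20 agonist is SEW2871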
Sequence (P21453 whole entry, looked up): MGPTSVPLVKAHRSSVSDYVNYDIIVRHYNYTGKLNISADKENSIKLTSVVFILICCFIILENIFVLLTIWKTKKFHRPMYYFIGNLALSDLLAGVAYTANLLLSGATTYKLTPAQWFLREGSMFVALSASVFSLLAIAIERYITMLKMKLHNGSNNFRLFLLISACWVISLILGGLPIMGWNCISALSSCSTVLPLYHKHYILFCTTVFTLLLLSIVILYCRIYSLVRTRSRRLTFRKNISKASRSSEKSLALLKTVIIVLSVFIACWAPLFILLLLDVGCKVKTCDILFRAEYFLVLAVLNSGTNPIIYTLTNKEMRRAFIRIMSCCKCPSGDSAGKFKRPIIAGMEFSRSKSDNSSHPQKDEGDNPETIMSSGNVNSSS
The campaign covered roughly 56,000 compounds. About 320 (0.57%) were called active. The entries come from a sample that favours actives as a whole.
Values of activation greater than or equal to -10% map to TRUE; values below map to FALSE.

INSERT INTO measurements (molecule, assigned_category) VALUES
  ('O=C(c1cccs1)N1CCN(Cc2ccc3c(c2)OCO3)CC1', 'TRUE'),
  ('Cc1ccc(-n2ncc3c(N4CCN(c5ccc(F)cc5)CC4)ncnc32)c(C)c1', 'TRUE'),
  ('Fc1ccc2[nH]c3c(N4CCSCC4)ncnc3c2c1', 'TRUE'),
  ('Cc1cc(OCCN2CCCC2)ccc1C(C)C', 'FALSE'),
  ('COc1ccc(-c2c(C)nn3c(N4CCC(C(=O)N5CCCCC5)CC4)cc(C)nc23)cc1OC', 'TRUE'),
  ('CS(=O)(=O)N(Cc1nc2sc3c(c2c(=O)[nH]1)CCCC3)C1CCCCC1', 'TRUE'),
  ('CCCOC(=O)CC1C(=O)NCCN1Cc1ccc(F)cc1 (configuration not stated)', 'FALSE'),
  ('Fc1ccc2nc(N3CCCCC3)sc2c1', 'FALSE'),
  ('Cc1cc(N2CCN(Cc3ccc4c(c3)OCO4)CC2)n2ncnc2n1', 'TRUE'),
  ('COc1ccc(CSc2nc(N3CCOCC3)c3c(c2C#N)CC(C)(C)OC3)cc1', 'FALSE'),
  ('Fc1ccc2[nH]c3c(N4CCN(Cc5ccc6c(c5)OCO6)CC4)ncnc3c2c1', 'TRUE'),
  ('Cc1ccc(-c2nn(-c3ccccc3)cc2CN(Cc2ccccc2)C(=O)CCC(=O)O)o1', 'FALSE');

====

biological target: Sphingosine 1-phosphate receptor 1 (Homo sapiens) (UniProt P21453); test: S1P1 agonists and agonism potentiators, primary screen, cell-based, primary and confirmation screens, CRE-bla reporter (AID 449); details: S1P1 CRE-bla cells, forskolin, beta-lactamase FRET, potentiator mode; at 9.5 µM; hits give high values; 100% = saturating reference agonist, 0% = basal; S1P1 agonist co-added at EC20, 2 nM;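 note: forskolin at 4 µM as EC80 and the EC20 agonist is SEW2871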
About 320 (0.57%) of roughly 56,000 compounds were called active. This is one part of a sample in which actives are shown more often than they occur.
Values of activation greater than or equal to 20% map to met; values below map to not met.

INSERT INTO results (compound, assigned_category) VALUES
  ('CCOC(=O)C1CCN(c2ncnc3c2oc2ccc(Br)cc23)CC1', 'not met'),
  ('COc1ccc(S(=O)(=O)N2CCN(C(=O)c3cccs3)CC2)cc1OC', 'not met'),
  ('COc1ccc(C(=O)Nc2cccnc2)cc1C(=O)Nc1cccnc1', 'not met'),
  ('CN(CCCC(=O)Nc1nccs1)S(=O)(=O)c1ccc(Cl)cc1', 'met'),
  ('COc1ccc(CCNc2ncnc3nc[nH]c23)cc1OC', 'not met'),
  ('CC[C@H]1CN2CCc3cc(OC)c(OC)cc3[C@@H]2C[C@@H]1C[C@H]1NCCc2cc(OC)c(OC)cc21', 'met'),
  ('c1ccc2c(c1)OCC(CNc1ncnc3nc[nH]c13)O2 (stereo unspecified)', 'met'),
  ('O=C(Cn1cnc2c(cnn2-c2ccc(F)cc2)c1=O)NCCc1ccccc1', 'not met'),
  ('CCc1ccc(N(CC)c2ncnc3nc[nH]c23)cc1', 'met'),
  ('O=C(O)CN(Cc1ccco1)S(=O)(=O)c1ccccc1', 'not met'),
  ('Cc1cccn2c(=O)c3cc(C#N)c(=O)n(CCCN4CCOCC4)c3nc12', 'not met');
